- Tested on: LOX IMVI melanoma
- test: NCI-60 one-dose screen, 48 h
- condition: 10 µM unless noted
This is part of a sample that, as a whole, favours compounds with a hit. Of some 83,000 tested, about 20% had one in any assay. Calls of active or inactive are those of the source. How the source made its calls: active means growth percent below 10; inactive means the rest.
I would appreciate it if you answered using one of these outcomes: active, inactive

1. COc1ccc(C(=O)c2sc3nc4c(cc3c2N)N2CCC4CC2)cc1OC    inactive
2. COc1cc(NC(C)CCCNC2CN3CCC2CC3)c2ncccc2c1 (stereo not given)    inactive
3. COc1cccc(C=NC(Cc2cnc[nH]2)C(=O)O)c1O (stereo not given)    inactive
4. CCOC(=O)[C@@H](C)C[C@H](Cc1ccccc1)NC(=O)c1csc([C@@H](C[C@H](C(C)C)N(C)C(=O)[C@@H](NC(=O)[C@H]2C[C@H](O)CCN2C)C(C)C)OC(C)=O)n1    inactive

Kindly review the next compound as well.
So what was the verdict on CC12CCC=CC1CCC1C2CCC2(C)C(c3ccc(=O)oc3)CCC12O (stereo not given) in this test?
active
